- Tested on: MS2 coat protein
- experiment_description: apparent KD of MS2 coat protein; designed switch direction (-1 OFF switch, 1 ON switch): 1; higher = weaker reporter binding
- measurement_context: input ligand: microRNA oligo, concentration not stated
Decision: apparent KD of MS2 coat protein >= 30 nM yields condition met, all other cases yield condition not met.

1) UGUUGUAUUACAGGAUAUCUAUUAGUAUUAUUUAGAGAAGGGUAUUCACAUGAGGAUCACCCAUGUAUAUACGAGGAAGUUGUG [JMF's solution 89] (Eterna round: R96, puzzle: Same State NG 1) = condition met
2) AGCUAUUAAUCAGGAUAUGGUCACAUGAGGAUCACCCAUGUAACGAUGAUAUAAUGUGGUCAAAACUAGAAGGGAUUGCUAACA [SameState NG2 #65] (Eterna round: R96, puzzle: Same State NG 2) = condition met
3) GCUACCAAUGAAGCCAACAUGAGGAUCACCCAUGUAUGUUGGCAGGAUAUCGAUUGCAAAGCGAUCGAGAAGGGCUAAGGUAGC [Mat - Same State NG 3 - JL Mod - D87] (Eterna round: R96, puzzle: Same State NG 3) = condition met
4) CCUGCAAUUAACGCCUACAUGAGGAUCACCCAUGUAUGUAGGCAGGAUAUCGUUUGCUUUGCAAACGAGAAGGGCUGUAGUAGC [salish99_SSNG3_R04_002] (Eterna round: R96, puzzle: Same State NG 3) = condition not met
5) AGGCUCAGACGAGGAUAUAUGUGAUCACAUGAGGAUCACCCAUGUCUCGAGCUUCGGCUCGAGACAUAGAAGGCGUCUGAGCCA [SSNG2/3-A1] (Eterna round: R96, puzzle: Same State NG 2) = condition not met
6) AAGCUCGUGUGAGGAUAUGCCGCCGUUUCGGCUGCAGAAGGUGCUACGUUACAUGAGGAUCACCCAUGUCUCUGUUGUUUCGUG [salish99_SSNG1_r04_953] (Eterna round: R96, puzzle: Same State NG 1) = condition not met
7) UAUUAGAUCCGAGGAUAUCCUUUUUUCUUACAUGAGGAUCACCCAUGUAAAGGGAUUGAGUUGUAGGAGAAGGCGGAUUUAGUU [JR_SSNG2_Sub058] (Eterna round: R96, puzzle: Same State NG 2) = condition not met
8) AGUUGAAAUACAGGAUAUAUAUUAUUUUUAUUUAUAGAAGGGUAAUCACAUGAGGAUCACCCAUGUAUAUACGAGGAAGAAGAG [JMF's solution 1] (Eterna round: R96, puzzle: Same State NG 1) = condition met

Query string: apparent KD of MS2 coat protein >= 30 nM for CCGUAGAUGGAAGGAUAUGGAGCCUUAUUGGCUCCAGAAGGUUCAAAACAUGAGGAUCACCCAUGUACGGCGGUCAAUAGACCG [Eli NG1ss - 82] (Eterna round: R96, puzzle: Same State NG 1) ?
Result string: condition met
